Provide the reported pKi of each item.
Experiment: Displacement of [3H]ditolylguanidine from sigma 2 receptor in rat liver membrane by liquid scintillation analyzer
Format: cell membranes
Please keep in mind that pKi is minus log10 of the molar concentration; only the number is needed.

## Input Give a short answer stating reported pKi for OC[C@H]1CN(Cc2ccccc2)CCN1Cc1ccccc1 .
## Output 6.75

## Input Give a short answer stating reported pKi for OC[C@H]1CN(Cc2ccccc2)CCCN1Cc1ccccc1 .
## Output 6.43

## Input Give a short answer stating reported pKi for COC(CN1CCCN(Cc2ccccc2)[C@@H](CO)C1)OC .
## Output 5.05
